Data provenance is patent US20170088532A1.

tgt: UniProt P0A725
Sequence (P0A725 whole entry): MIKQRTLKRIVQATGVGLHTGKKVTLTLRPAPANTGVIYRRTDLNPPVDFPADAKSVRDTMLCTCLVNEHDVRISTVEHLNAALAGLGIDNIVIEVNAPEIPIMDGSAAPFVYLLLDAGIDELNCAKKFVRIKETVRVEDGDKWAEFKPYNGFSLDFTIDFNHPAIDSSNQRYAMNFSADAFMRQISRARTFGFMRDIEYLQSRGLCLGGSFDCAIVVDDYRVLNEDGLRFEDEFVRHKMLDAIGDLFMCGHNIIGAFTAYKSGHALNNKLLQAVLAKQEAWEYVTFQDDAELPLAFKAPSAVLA
method description: Inhibition of LpxC from E. coli
Assay type: biochemical
applied conditions: compound at 50 μM; Table 2, values in parentheses; read-out: (% Inhibition of E. Coli LpxC at 50 μM)
Could you please report measured inhibition at 50 µM for the items listed next?
Give bare numbers, in %.

Cc1cc(=O)c(O)c(CNc2ccc(-c3ccccc3)cc2)o1 [Compound 014]
23
COC(=O)c1cc(=O)c(O)c(CNc2ccc(-c3ccc(OC)cc3)cc2)o1 [Compound 035]
29
COc1ccc(-c2ccc(NCc3occc(=O)c3O)cc2)cc1 [Compound 027]
13

I have 2 molecules here; please give me inhibition at 50 µM for each one.
1. O=c1cc(CO)oc(CNc2ccc(-c3ccccc3)cc2)c1O [Compound 010]
2. O=c1ccoc(CNc2ccc(-c3ccccc3)cc2)c1O [Compound 013]

1: 39; 2: 67
